assayed-target: recombinant soluble homotrimeric HA of A/common magpie/Hong Kong/5052/07 (H5N1) (Influenza A virus A/common magpie/Hong Kong/5052/2007(H5N1))
assay-method-text: trimeric HA microarray, transfection supernatant set 5
assay-context: remark: other sources report otherwise
The label depends only on Trimeric HA Binding: RLU: condition met if it is at least 2000 RLU, condition not met if it is smaller.

Inquiry: API: above_or_equal(metric=Trimeric HA Binding: RLU, cutoff=2000 RLU) for item TCN-537 (3194_D21) (antibody, V domains shown) VH: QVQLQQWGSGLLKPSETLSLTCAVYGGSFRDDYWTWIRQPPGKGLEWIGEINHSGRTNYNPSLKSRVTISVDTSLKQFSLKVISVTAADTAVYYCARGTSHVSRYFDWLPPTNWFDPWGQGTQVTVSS VL: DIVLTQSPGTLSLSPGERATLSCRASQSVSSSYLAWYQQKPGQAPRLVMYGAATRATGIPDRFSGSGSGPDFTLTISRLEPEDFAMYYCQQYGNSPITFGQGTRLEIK
Reply text: condition met

Inquiry: What about TCN-538 (3206_O17) (antibody, V domains shown) VH: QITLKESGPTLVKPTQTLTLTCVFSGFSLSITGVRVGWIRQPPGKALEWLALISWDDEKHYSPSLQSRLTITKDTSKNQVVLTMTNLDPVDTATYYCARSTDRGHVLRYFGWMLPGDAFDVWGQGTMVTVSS VL: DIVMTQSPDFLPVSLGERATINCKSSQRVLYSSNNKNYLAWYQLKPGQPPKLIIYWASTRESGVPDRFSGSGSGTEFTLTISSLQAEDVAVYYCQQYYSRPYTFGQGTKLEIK ?
Reply text: condition met

Inquiry: And TCN-540 (5060_F05) (antibody, V domains shown) VH: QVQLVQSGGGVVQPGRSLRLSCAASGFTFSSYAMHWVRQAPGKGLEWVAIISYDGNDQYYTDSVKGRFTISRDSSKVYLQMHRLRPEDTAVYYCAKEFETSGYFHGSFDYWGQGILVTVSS VL: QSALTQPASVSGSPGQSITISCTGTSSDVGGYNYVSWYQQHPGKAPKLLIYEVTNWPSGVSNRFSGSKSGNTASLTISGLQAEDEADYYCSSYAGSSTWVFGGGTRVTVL ?
Reply text: condition not met

Inquiry: Likewise for TCN-543 (5081_G23) (antibody, V domains shown) VH: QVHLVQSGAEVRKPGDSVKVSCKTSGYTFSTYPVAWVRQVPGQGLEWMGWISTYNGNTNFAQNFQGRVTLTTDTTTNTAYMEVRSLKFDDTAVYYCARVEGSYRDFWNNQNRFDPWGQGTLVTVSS VL: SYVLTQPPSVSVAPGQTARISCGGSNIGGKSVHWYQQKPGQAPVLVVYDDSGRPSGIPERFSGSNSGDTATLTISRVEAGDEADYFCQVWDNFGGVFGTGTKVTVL ?
Reply text: condition not met

Inquiry: Same question, TCN-546 (5089_L08) (antibody, V domains shown) VH: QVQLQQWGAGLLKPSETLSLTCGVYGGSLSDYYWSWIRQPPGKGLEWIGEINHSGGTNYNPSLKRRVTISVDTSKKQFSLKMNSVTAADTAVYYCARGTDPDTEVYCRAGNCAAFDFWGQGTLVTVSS VL: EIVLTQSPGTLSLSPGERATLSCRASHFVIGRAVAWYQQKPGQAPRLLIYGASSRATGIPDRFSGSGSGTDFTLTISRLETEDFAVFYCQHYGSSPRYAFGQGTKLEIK this time
Reply text: condition not met

Inquiry: Subsequent entry: TCN-545 (5082_I15) (antibody, V domains shown) VH: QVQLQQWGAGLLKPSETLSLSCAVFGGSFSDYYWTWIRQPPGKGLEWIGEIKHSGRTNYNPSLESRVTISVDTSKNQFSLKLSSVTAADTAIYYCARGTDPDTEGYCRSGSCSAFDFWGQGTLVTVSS VL: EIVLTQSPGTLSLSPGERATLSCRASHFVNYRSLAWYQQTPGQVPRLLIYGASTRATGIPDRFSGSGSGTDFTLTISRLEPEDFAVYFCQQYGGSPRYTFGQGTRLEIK
Reply text: condition not met
